TARGET_DESC: UniProt:P97612
Sequence (P97612 whole entry): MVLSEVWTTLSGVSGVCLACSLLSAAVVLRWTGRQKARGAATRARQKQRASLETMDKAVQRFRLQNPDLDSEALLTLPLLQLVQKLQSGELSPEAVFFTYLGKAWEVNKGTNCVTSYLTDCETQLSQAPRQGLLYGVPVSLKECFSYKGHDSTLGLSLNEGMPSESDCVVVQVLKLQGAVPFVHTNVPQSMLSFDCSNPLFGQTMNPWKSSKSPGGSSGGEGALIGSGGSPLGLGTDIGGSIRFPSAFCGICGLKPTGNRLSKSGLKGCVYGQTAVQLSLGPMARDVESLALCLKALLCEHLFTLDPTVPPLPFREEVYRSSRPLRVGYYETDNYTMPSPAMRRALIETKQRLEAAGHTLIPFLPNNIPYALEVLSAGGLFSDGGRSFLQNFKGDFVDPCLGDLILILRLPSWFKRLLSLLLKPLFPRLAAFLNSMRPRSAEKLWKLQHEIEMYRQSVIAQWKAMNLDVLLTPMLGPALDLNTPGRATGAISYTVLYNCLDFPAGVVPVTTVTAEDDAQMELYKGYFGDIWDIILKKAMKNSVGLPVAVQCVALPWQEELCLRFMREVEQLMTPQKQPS
METHOD_DESCRIPTION: Inhibition of FAAH-mediated [3H]AEA hydrolysis in rat brain homogenate by liquid scintillation spectroscopy relative to control
Format: tissue-based
CONDITION_DESCRIPTION: concentration not given here
What inhibition was measured for each of the following?
Give your result in % as a bare value.

## Task Output inhibition of CC(=O)Nc1ccc(OC(=O)CNC(=O)C(C)c2ccc(Nc3ccnc(C(F)(F)F)c3)cc2)cc1 (stereo not given)
## Result 100

## Task Could you please provide reported inhibition for CC(C)Cc1ccc(C(C)C(=O)O)cc1 (racemic) ? Thanks!
## Result 100

## Task Note down inhibition recorded for CC(=O)Nc1ccc(OC(=O)c2ccc(Cl)cc2Nc2ccnc(C(F)(F)F)c2)cc1
## Result 62

## Task Give the measured inhibition for CC(=O)Nc1ccc(OC(=O)CCc2ccc(Nc3ccnc(C(F)(F)F)c3)cc2)cc1
## Result 100

## Task Return reported inhibition. Input compound: Cc1cccnc1NC(=O)C(C)c1ccc(CC(C)C)cc1 (stereo not given)
## Result 100
